Documented logD across a set of compounds
- test.summary: LogP (Octanol-water partition coefficient) was measured at pH 2.3
- Assay type: physicochemical
No unit in the answer, please; the number alone is enough.

Some compounds with known logD results, for comparison:
CCC(C)[C@H]1C(=O)O[C@H](C)C(=O)N(C)[C@@H](C(C)CC)C(=O)O[C@H](C)C(=O)N(C)[C@@H](C(C)CC)C(=O)O[C@H](C)C(=O)N1C (stereo not given in full)	4.2
CCC(C)[C@H]1C(=O)O[C@H](C)C(=O)N(C)[C@@H](C)C(=O)O[C@H](C)C(=O)N(C)[C@@H](C(C)CC)C(=O)O[C@H](C)C(=O)N1C (stereo not given in full)	3.26
CCCC[C@H]1OC(=O)[C@H](C(C)CC)N(C)C(=O)[C@@H](C)OC(=O)[C@H](C(C)CC)N(C)C(=O)[C@@H](C)OC(=O)[C@H](C(C)CC)N(C)C1=O (stereo not given in full)	5.14
CCC(C)[C@H]1C(=O)O[C@H](C)C(=O)N(C)[C@@H](C(C)CC)C(=O)O[C@H](C)C(=O)N(C)[C@@H](C(C)CC)C(=O)OCC(=O)N1C (stereo not given in full)	4

Please examine the following record next.
In: Using the record for CC[C@H](C)[C@H]1C(=O)O[C@H](C)C(=O)N(C)[C@@H]([C@@H](C)CC)C(=O)O[C@H](C)C(=O)N(C)[C@@H](C)C(=O)OC(C)C(=O)N1C (single isomer, unassigned) , state its measured logD.
Out: 3.1
